minimum viability across doses values, listed per item
system: CAKI-1; assay: minimum viability across doses, drug + dasatinib, relative to DMSO (fraction); higher = less growth inhibition; conditions: treatment: drug + dasatinib (fixed dose, not stated); 5 days

Query: What value of minimum viability across doses has been reported for the following compound? CCS(=O)(=O)N1CC(CC#N)(n2cc(-c3ncnc4[nH]ccc34)cn2)C1 + Cc1nc(Nc2ncc(C(=O)Nc3c(C)cccc3Cl)s2)cc(N2CCN(CCO)CC2)n1 [dasatinib]
Response: 0.47

Query: What value of minimum viability across doses has been reported for the following compound? CCC[C@H](NC(=O)/C(C#N)=C/c1cccc(Br)n1)c1ccccc1 [WP1130] + Cc1nc(Nc2ncc(C(=O)Nc3c(C)cccc3Cl)s2)cc(N2CCN(CCO)CC2)n1 [dasatinib]
Response: 0.0305

Query: What value of minimum viability across doses has been reported for the following compound? O=C1Nc2ccccc2/C1=C1/Nc2ccccc2C1=O [Indirubin] + Cc1nc(Nc2ncc(C(=O)Nc3c(C)cccc3Cl)s2)cc(N2CCN(CCO)CC2)n1 [dasatinib]
Response: 0.497

Query: What value of minimum viability across doses has been reported for the following compound? Cc1ncc(-c2ccnc(Nc3ccc(S(C)(=O)=O)cc3)n2)n1C(C)C [AZD5438] + Cc1nc(Nc2ncc(C(=O)Nc3c(C)cccc3Cl)s2)cc(N2CCN(CCO)CC2)n1 [dasatinib]
Response: 0.0627

Query: What value of minimum viability across doses has been reported for the following compound? CCOc1ccn(-c2ccc(F)cc2)c(=O)c1C(=O)Nc1ccc(Oc2ccnc(N)c2Cl)c(F)c1 + Cc1nc(Nc2ncc(C(=O)Nc3c(C)cccc3Cl)s2)cc(N2CCN(CCO)CC2)n1 [dasatinib]
Response: 0.118

---

test system: 769-P; experiment: GI50, drug alone; higher = less potent; details: treatment: drug alone; 5 days
readout: GI50, drug alone

Example molecules with recorded GI50, drug alone:
Query: What value of GI50, drug alone has been reported for the following molecule? C[C@@H]1CN(CC(=O)Nc2ccc3c(c2)Cc2cccc(-c4cc(=O)cc(N5CCOCC5)o4)c2S3)C[C@H](C)O1
Response: > 10 µM

Query: What value of GI50, drug alone has been reported for the following molecule? Cc1[nH]c(/C=C2/C(=O)Nc3ccc(S(=O)(=O)N(C)c4cccc(Cl)c4)cc32)c(C)c1C(=O)N1CCN(C)CC1
Response: > 10 µM

Query: What value of GI50, drug alone has been reported for the following molecule? O=C1Nc2ccccc2/C1=C1/Nc2ccccc2C1=O [Indirubin]
Response: > 10 µM

Query: What value of GI50, drug alone has been reported for the following molecule? CC1(C)CCC(c2ccc(Cl)cc2)=C(CN2CCN(c3ccc(C(=O)NS(=O)(=O)c4ccc(N[C@H](CCN5CCOCC5)CSc5ccccc5)c(S(=O)(=O)C(F)(F)F)c4)cc3)CC2)C1 [ABT-263 (Navitoclax)]
Response: 3.17 µM

Query: What value of GI50, drug alone has been reported for the following molecule? COc1cc2nccc(Oc3ccc(NC(=O)NC4CC4)c(Cl)c3)c2cc1C(N)=O [E7080 (Lenvatinib)]
Response: > 10 µM

Query: What value of GI50, drug alone has been reported for the following molecule? O=C1NC(=O)[C@@H](c2cn3c4c(cccc24)CCC3)[C@@H]1c1c[nH]c2ccccc12 [ARQ 197 (Tivantinib)]
Response: 1.55 µM

Query: What value of GI50, drug alone has been reported for the following molecule? CC(C)(C)c1cnc(CSc2cnc(NC(=O)C3CCNCC3)s2)o1
Response: 1.44 µM

Query: What value of GI50, drug alone has been reported for the following molecule? CO[C@H]1C[C@@H]2CC[C@@H](C)[C@@](O)(O2)C(=O)C(=O)N2CCCC[C@H]2C(=O)O[C@H]([C@H](C)C[C@@H]2CC[C@@H](OCCO)[C@H](OC)C2)CC(=O)[C@H](C)/C=C(\C)[C@@H](O)[C@@H](OC)C(=O)[C@H](C)C[C@H](C)/C=C/C=C/C=C/1C [Everolimus (RAD001)]
Response: > 10 µM

Query: What value of GI50, drug alone has been reported for the following molecule? c1ccc2c(-c3cnn4cc(-c5ccc(N6CCNCC6)cc5)cnc34)ccnc2c1
Response: 2.6 µM

Query: What value of GI50, drug alone has been reported for the following molecule? Oc1cc(O)cc(/C=C/c2ccc(O)c(O)c2)c1 [Piceatannol]
Response: > 10 µM

More entries:
Query: What value of GI50, drug alone has been reported for the following molecule? Cc1ccc(-n2nc(C(C)(C)C)cc2NC(=O)Nc2ccc(OCCN3CCOCC3)c3ccccc23)cc1 [BIRB 796 (Doramapimod)]
Response: > 10 µM

Query: What value of GI50, drug alone has been reported for the following molecule? COc1cc2c(Nc3ccc(Br)cc3F)ncnc2cc1OCC1CCN(C)CC1 [Vandetanib (Zactima)]
Response: 5.26 µM

Query: What value of GI50, drug alone has been reported for the following molecule? CN(C[C@@H]1COCCO1)S(=O)(=O)Nc1ccc2ccc3ncc(-c4cnn(C)c4)cc3c(=O)c2c1 [MK-2461]
Response: > 10 µM
